- Test summary: chemical genetic growth profiling, strain panel (AID 1159580);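 also: tested at 20 µM; growth read once vehicle control cultures reached saturation at 30 °C; 1 = growth at the plate median or of vehicle wells; lower values mean less growth of the strain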
- Condition notes: S. cerevisiae deletion strains, growth OD, locus YJL134W, strain LCB3, hits give low values
Screen size: about 5,500 compounds; about 2,000 (36%) were called active. Another 18% or so got no clear call; they are omitted. The list shows a part of the results.
Result type: normalized growth

Solved cases (5 shown):
Molecule	Result type	Result
CC(C)(C)NC[C@@H](O)COc1nsnc1N1CCOCC1	normalized growth	0.985 (inactive)
Nc1ccc(S(=O)(=O)Nc2ccc(Cl)nn2)cc1	normalized growth	1.01 (inactive)
NC(=NCCC[C@H](N)C(=O)O)NC(CCC(=O)O)C(=O)O (stereo partly drawn)	normalized growth	1.01 (inactive)
Nc1ncn([C@@H]2O[C@H](CO)[C@@H](O)[C@H]2O)c(=O)n1	normalized growth	1 (inactive)
CC(C)(C)NCC(O)c1ccccc1Cl (stereo not drawn)	normalized growth	0.981 (inactive)

Measured normalized growth, COc1cc(OC)c2c(=O)c(-c3ccccc3)c(C)oc2c1OC : 1.01 (inactive)

Reported normalized growth of c1ccc2c(c1)cc1ccc3cccc4ccc2c1c34 : 1.01 (inactive)

Entry Cc1occc(=O)c1O — recorded normalized growth = 1.01 (inactive)

// normalized growth lookup, molecule = C=CC(C)(O)CC/C=C(\C)CCC=C(C)C (stereo not drawn) , result: 0.997 (inactive)

Entry C=C[C@](C)(O)CCC=C(C)C , normalized growth reported as 0.999 (inactive)

For Cc1ccc2cc3c(ccc4ccccc43)c3c2c1CC3 the molecule record lists normalized growth as 0.99 (inactive)

// recorded normalized growth for CC(C)NCC(O)c1ccc2ccccc2c1 (stereo not drawn) : 1 (inactive)

The molecule listed as CC1(C)CC2C1(O)CCC1(C)C=CC(O)C21CO (stereo not drawn) has a reported normalized growth of 0.992 (inactive)
